Some molecules, each annotated with its measured cytotoxicity at 70.5 h.
protocol-description: Human HepG2 cell viability assay in 384 well format
Assay type: toxicity, cell-based
Design: dose 125 nL, time 70.5 hour; concentration not given beside the values
condition-context: HepG2 cells, read-out: Inhibition
Form entry: value (%) — number only.

Answered cases to consult:
Cc1ccc(S(=O)(=O)NCCNC(=O)c2ccoc2)cc1F; 11.8
Cn1ncc2c1C(COCC1CC1)N(C(=O)c1ccncn1)CC2 (stereo not drawn); 5.78
Cc1cc2nc(CO[C@H]3CN(CC4CC4)C[C@H]3F)[nH]c2cc1C; -2.67
Cc1cc2ccccc2n1CCC(=O)N1CCCC2(CC1)CNC(=O)O2 (stereo not drawn); -7.42

Recorded cytotoxicity at 70.5 h of CC(=O)NCCNC(=O)CN1CCCC1Cn1nc(C)nc1C (stereo not drawn) , please.
-16.9

Form field: reported cytotoxicity at 70.5 h of CC(NC(=O)C1CCN(C(=O)C2CC2)CC1)c1nncn1C(C)C (stereo not drawn)
-4.92

Return reported cytotoxicity at 70.5 h; argument: "O=C(NCCNc1ccc(C(F)(F)F)cn1)c1cc(Cl)ccc1F"
-4.63

Form field: reported cytotoxicity at 70.5 h of "CCC[C@H]1CN(c2nccc(OC)n2)C[C@@H]1NS(=O)(=O)N(C)C"
0.969

// query cytotoxicity at 70.5 h value for entry "COCCNC(=O)[C@H]1C[C@@H]2CCN(CCc3ccccc3)C[C@@H]2O1"
-4.71

Dear colleague, I am looking for the recorded cytotoxicity at 70.5 h of the following molecule: NC(=O)NC(=O)C(c1ccccc1)N1CCN(Cc2ccsc2)CC1 (stereo not drawn)
-7.31

What does the record list as cytotoxicity at 70.5 h for Cc1[nH]c(=O)[nH]c(=O)c1CN1CCCC(CCc2ccccc2)C1 (stereo not drawn) ?
-5.9

Name the recorded cytotoxicity at 70.5 h for "Cc1noc(C)c1-c1cccc(C2CCN(S(=O)(=O)N(C)C)CC2)n1" .
2.89

Quick one: cytotoxicity at 70.5 h of Cc1ccc(CNCC2CCN(CC(O)c3ccccc3)CC2)o1 (stereo not drawn) ?
-1.65

The measurements presented in this section are drawn from ChEMBL document CHEMBL3507680.
